Experiment: qHTS for Inhibitors of the Functional Ribonucleoprotein Complex (vRNP) of Lassa (LASV) Arenavirus: LASV Primary Screen - GLuc reporter signal (AID 1347082); also: nearly all actives have a fitted effect of over 60% in size
Details: LASV minigenome vRNP, Gaussia luciferase reporter; series mostly up to 57.5 µM
Results filed as inconclusive are left out. Calls of active or inactive are those of the source. Calls follow the shape of the full dose curve; tested in HEK293 reporter line.
Response enum: active, inactive

molecule: C1=CCOCc2cc(ccc2OCCN2CCCC2)Nc2nccc(n2)-c2cccc(c2)OCC1
category label: active

molecule: CCN1CCN(Cc2ccc(-c3cc4c(N[C@H](C)c5ccccc5)ncnc4[nH]3)cc2)CC1
category label: inactive

molecule: O=C(O)COc1ccccc1
category label: inactive

molecule: NC(CO)(CO)CCc1ccc(Sc2cccc(OCc3ccccc3)c2)cc1Cl
category label: inactive

molecule: O=C(Oc1ccc([N+](=O)[O-])cc1)N1CCC(C(O)(c2ccc3c(c2)OCO3)c2ccc3c(c2)OCO3)CC1
category label: inactive

molecule: CCCN(CCC)C1CCc2ccc(O)cc2C1 (configuration not stated)
category label: inactive

Data request: Fill in: this test's call for `COc1c(Cl)cc2c([nH]c3cnccc32)c1NC(=O)c1cccnc1C` is ___
Data returned: inactive

Data request: Fill in: this test's call for `O=S(=O)(c1ccc(Cl)cc1)c1ccc(Cl)cc1` is ___
Data returned: inactive

Data request: Fill in: this test's call for `CCCN1CCC[C@H](c2cccc(O)c2)C1` is ___
Data returned: inactive

Data request: Fill in: this test's call for `Nc1cccc2c(N)cccc12` is ___
Data returned: inactive

Data request: Fill in: this test's call for `C[C@@H](N)Cc1cnc[nH]1` is ___
Data returned: inactive

Data request: Fill in: this test's call for `CCCCCCCCCCCCCC(=O)OC(C)C` is ___
Data returned: inactive

Data origin: PubChem BioAssay (NCATS)
